- method_description: PPC-1 cell viability loss under TRAIL – PPC-1 cells, ATPLite luminescence, uHTS, TRAIL potentiator project, primary screen (AID 1443)
- settings: PPC-1 cells + TRAIL; at 4 µM unless noted
In all, about 220,000 compounds went through this assay and about 880 (0.4%) were called active.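 The calls were made as follows: active = cell killing above 50% in the first pass at 4 µM, then a duplicate retest at 5 µM averaging 50% or more; inactive = the rest.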 This excerpt belongs to a sample that is enriched for actives.
Answer with one of the outcomes active, inactive

CCC/C(C)=N\Nc1nc2c(c(=O)n(C)c(=O)n2C)n1C | inactive
COC(=O)c1sc(NC(=S)NC(=O)c2ccc(C)cc2)nc1C | inactive
Cc1ccnc(NC(=O)Cn2ccc([N+](=O)[O-])n2)c1 | inactive

Returns: the outcome recorded for "C=CCN(C(=O)Nc1ccc2c(c1)nc(C)n2C)c1ccccc1" in this assay.
inactive

For "Cc1nc2cc(NC(=O)Nc3cccc(F)c3)ccc2n1C" then?
active

For "Fc1ccccc1Cc1ccc(Cl)nn1" then?
inactive

For "O=C(c1ccc(F)cc1)n1c(=S)nc2ccccn21" then?
active

For O=C1CSC(c2ccccc2)N1c1nc(-c2ccc(Cl)cc2Cl)cs1 (centres undefined) then?
inactive

For "Cn1cnc([N+](=O)[O-])c1Sc1n[nH]c(N)n1" then?
inactive

---

- method_description: PPC-1 cell viability loss under TRAIL – PPC-1 cells, ATPLite luminescence, uHTS, TRAIL potentiator project, primary screen (AID 1443)
- settings: PPC-1 cells + TRAIL; at 4 µM unless noted
Hit rate of the full screen: of about 220,000 compounds, about 880 (0.4%) were called active.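 The calls were made as follows: active = cell killing above 50% in the first pass at 4 µM, then a duplicate retest at 5 µM averaging 50% or more; inactive = the rest.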 Only a selection was taken, and actives are over-represented in it overall.
Answer with one of the outcomes active, inactive

Record excerpt, results attached:
O=c1oc2ccccc2cc1-c1cn(-c2ccccc2)c(=S)[nH]1 | active
O=C(c1cn(-c2ccccc2)nc1-c1cc2ccccc2oc1=O)N1CCOCC1 | inactive
Cc1ccc2nsnc2c1S(=O)(=O)N1CCCC1C(=O)O (stereo unspecified) | inactive

Returns: the outcome recorded for "CCOc1ccc(/C=N/Nc2nncc(-c3ccccc3)n2)cc1OC" in this assay.
inactive

For CCC(C)N1C(=S)SC(C)(C)C1N(O)C(=O)NC1CCCCC1 (stereo unspecified) then?
inactive

For "O=[N+]([O-])c1ccc(N2CCN(S(=O)(=O)c3ccccc3)CC2)cc1N1CCc2ccccc2C1" then?
inactive

---

- method_description: PPC-1 cell viability loss under TRAIL – PPC-1 cells, ATPLite luminescence, uHTS, TRAIL potentiator project, primary screen (AID 1443)
- settings: PPC-1 cells + TRAIL; at 4 µM unless noted
The campaign covered roughly 220,000 compounds. About 880 (0.4%) were called active.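 The calls were made as follows: active = cell killing above 50% in the first pass at 4 µM, then a duplicate retest at 5 µM averaging 50% or more; inactive = the rest.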 Shown is part of a subset that was picked to be rich in actives.
Answer with one of the outcomes active, inactive

N#C/C(=C\C1=C(N2CCOCC2)C(=C\c2ccccc2)/CC1)C(=O)Nc1ccccc1F | inactive
O=C(Oc1ccccc1)c1ccc2nccnc2c1 | inactive
Cc1ccc(-c2cc(C(=O)N/N=C/C=C/c3ccco3)c3ccccc3n2)cc1C | active
CC(C)(O)C#Cc1ncc(C(F)(F)F)cc1Cl | inactive
c1ccc(-c2noc(-c3cccs3)n2)nc1 | inactive

Returns: the outcome recorded for Cc1cccc(NC(=O)C2CC(=O)OC23CCCC3)c1 (stereo unspecified) in this assay.
inactive

---

- method_description: PPC-1 cell viability loss under TRAIL – PPC-1 cells, ATPLite luminescence, uHTS, TRAIL potentiator project, primary screen (AID 1443)
- settings: PPC-1 cells + TRAIL; at 4 µM unless noted
Among all 220,000 compounds or so, about 880 (0.4%) were called active.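 The calls were made as follows: active = cell killing above 50% in the first pass at 4 µM, then a duplicate retest at 5 µM averaging 50% or more; inactive = the rest.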 The list comes from a sample in which actives are over-represented; it also holds close analogues and randomly drawn compounds.
Answer with one of the outcomes YES = active, NO = inactive

COC(=O)C(=Nc1ccccc1)/C(C(=O)C(=O)N(C)c1ccccc1)=C(\O)c1ccc(Cl)cc1 | NO
COc1cccc(-c2cc(C(=O)N/N=C/c3ccc(OC)c(COC(C)=O)c3)c3ccccc3n2)c1 | NO

Returns: the outcome recorded for "COc1ccc(-c2nc(SCC(=O)N3CCOCC3)n[nH]2)cc1" in this assay.
NO

For Clc1cccc(-c2nc(NCC3CCCO3)c3ccccc3n2)c1 (stereo not given) then?
NO

For "CCOc1ccc(-c2ccc(SCC(=O)N3CCOCC3)nn2)cc1" then?
YES
